Values were extracted from patent US20250027068.

Molecular target: pooled human IgG (human IgG1, 2, 3 and 4)
Measure: Enzyme Activity Endpoint Assay: IgG (ng/µL)

1) PRT-493 (protein) MVTSVWTKGVTPPTNFTYGEDVLHAPYVANQGWYDITKTFNGKDNLLCGAATAGNMLHWWFDQNKEQIENYLKKHPEKQKIIFNNQELFDLKAAIDTKDSQLDSKLFEYFKEKAFPYLSTKHLGVFPDHVIDMFINGYRLSLTNHGPTPVKRGSKDKRGGIFDAVFTRGVQSKLLTNRHDLKNKTLKEISDLIKQELTEGKALGISHTYANVRINHVINLWGADFDAEGNLEAIYVTDSDTNASIGMKKYFVGVNSNGKVAISAKEIEEDNIGAQVLGLFTLSTGQDIWNQTNLEHHHHHH ... 0
2) PRT-406 (protein) MVTSVWTKGVTPPADFTQGEDVFHAPYVANQGWYDITKTFNRKDDLLCGAATAGNMLHWWFDQNKEYIEAYLKKHPEKQKIMFGDQELLDVRKAINTKGSQKNSELFNYFRDKAFPNLSARRLGVMPDLVLDMFINGYYLNVTKTQTTDVNRTYQEKDKRGGIFDAVFTRGDQSKLLTSRHDFKEKGLKEISDLIKQELTEGKALGLSHTYANVRINHVINLWGADFDSDGNLKAIYVTDSDSNASIGMKKYFVGVNSAGKVAISAKEIKEDNIGAQVLGLFTLSTGQDIWNQTN ... 135
3) PRT-467 (protein) MITSVWTKGVTPPTDFIKGEDVFHAPYKAGQGWYDITKAFDGGDDLLCGAATAGNMLHWWFDQNKDQIERYLKEHPEKQKINFNGEQMFDVKEAIDTKDSQTNSELFNYFKEKAFPYLSTKHLGVFPDHVLDMFINGYRLSLTNHGPTPVKRQEKDPRGGIFDAVFGRGDQTKLLTSRHDLKNKTLNEISQLIKQELTEGKALGLSHTYANVRINHVINLWGADFDAEGNLEAIYVTDSDSNASIGMKKYFVGVNSAGKVAISAKEIKEDNIGAQVLGLFTLSTGQKIWNKTNLEHHHHHH ... 57
